Just for reference, paper PMC4033659 is where these values come from.

Readings of plasma (maximum concentration) for the listed molecules
# testMethodNotes: In vivo PK in rats after ip administration
# conditionLabel: rat, ip 10 mg/kg, at Tmax 30 min

{"columns": ["smilesStructure", "plasma (maximum concentration) (µM)"],
 "data": [
  ["Cc1c(OCCCCOc2ccc(F)c(C(=O)O)c2)ccc(C(=O)CC(C)(C)C)c1O", 6.52],
  ["COc1cc(C(=O)O)ccc1OCCCCOc1ccc(C(=O)CC(C)C)c(O)c1C", 10.57],
  ["CCCC(=O)c1ccc(OCCCCOc2cc(C(=O)O)ccc2OC)c(C)c1O", 2.18],
  ["Cc1c(OCCCCOc2ccc(F)c(C(=O)O)c2)ccc(C(=O)C(C)C)c1O", 5.44],
  ["COc1ccc(C(=O)O)cc1OCCCCOc1ccc(C(=O)CC(C)(C)C)c(O)c1C", 2.44]
]}
